Below, each of the compounds is paired with its reported EC50 value.
Test system: whole cells (NMuLi, C2C12, and L6 cells, isolated cardiomyocytes, human primary fibroblasts)
protocol: Oxygen consumption rate (OCR) in whole cells, Seahorse XF-24 Flux Analyzer
Assay type: cell-based
cond: increase in OCR; binned EC50 values

- compound: "Oc1nc2nonc2nc1Nc1ccccc1 [1-52]"
  EC50: "> 20 µM"
- compound: "Oc1nc2nonc2nc1NCc1ccc(OC(F)(F)F)cc1 [1-80]"
  EC50: "> 20 µM"
- compound: "Oc1nc2nonc2nc1Nc1ccc(-c2cc(F)cc(F)c2)cc1 [1-121]"
  EC50: "≤ 5 µM"
- compound: "Oc1nc2nonc2nc1Nc1ccc(OCC2CC2)c(C(F)(F)F)c1 [1-92]"
  EC50: "≤ 5 µM"
- compound: "Oc1nc2nonc2nc1Nc1cccc(-c2ccc3c(c2)OCO3)c1 [1-120]"
  EC50: "≤ 5 µM"
- compound: "Oc1nc2nonc2nc1Nc1ccccc1C(F)(F)F [1-6]"
  EC50: "5 to 20 µM"
- compound: "Oc1nc2nonc2nc1Nc1ccc(C(F)(F)F)cc1 [1-7]"
  EC50: "5 to 20 µM"
- compound: "Oc1nc2nonc2cc1Nc1cccc(F)c1F [1-250]"
  EC50: "≤ 5 µM"
- compound: "Cc1ccc(Nc2nc3nonc3nc2O)cc1C [1-60]"
  EC50: "5 to 20 µM"
